Tested on: Pseudomonas aeruginosa
protocol: Antimicrobial activity against Pseudomonas aeruginosa 1767-00
Type: functional
result-type: MIC90 (µg/mL)
Lab book: enter the figure in µg/mL, no units written.

query: For the molecule C[C@H]1[C@H](NC(=O)/C(=N\OC(C)(C)C(=O)O)c2csc(N)n2)C(=O)N1C(=O)NS(=O)(=O)n1nc(-c2cc(=O)c(O)c[nH]2)n(CC(N)=O)c1=O , give its reported MIC90.
result: 0.25

query: For the molecule C[C@H]1[C@H](NC(=O)/C(=N\OC(C)(C)C(=O)O)c2csc(N)n2)C(=O)N1C(=O)NS(=O)(=O)n1nc(-c2cc(=O)c(O)c[nH]2)n(C)c1=O , give its reported MIC90.
result: 0.25

query: For the molecule C[C@@H](O)[C@H]1C(=O)N2C(C(=O)O)=C(S[C@@H]3CN[C@H](C(=O)N(C)C)C3)[C@H](C)[C@H]12 [MEROPENEM] , give its reported MIC90.
result: 0.5

query: For the molecule CC1(C)[C@H](NC(=O)/C(=N\OCc2cc(=O)c(O)cn2O)c2csc(N)n2)C(=O)N1OS(=O)(=O)O , give its reported MIC90.
result: 0.5

query: For the molecule C[C@H](O)Cn1c(-c2cc(=O)c(O)c[nH]2)nn(S(=O)(=O)NC(=O)N2C(=O)[C@@H](NC(=O)/C(=N\OC(C)(C)C(=O)O)c3csc(N)n3)[C@@H]2C)c1=O , give its reported MIC90.
result: 0.125

query: For the molecule C[C@H]1[C@H](NC(=O)/C(=N\OC(C)(C)C(=O)O)c2csc(N)n2)C(=O)N1C(=O)NS(=O)(=O)n1nc(-c2cc(=O)c(O)c[nH]2)n(C[C@@H](O)CO)c1=O , give its reported MIC90.
result: 0.06

query: For the molecule CC(C)(O/N=C(\C(=O)N[C@H]1CN(C(=O)NS(=O)(=O)n2nc(-c3cc(=O)c(O)c[nH]3)n(C[C@@H](O)CO)c2=O)C1=O)c1csc(N)n1)C(=O)O , give its reported MIC90.
result: 0.125

* * *

Tested on: Pseudomonas aeruginosa
protocol: Antimicrobial activity against Pseudomonas aeruginosa 1567-05
Format: functional
For each record, write down the corresponding MIC90.
Lab book: enter the figure in µg/mL, no units written.

query: For the compound C[C@H](O)Cn1c(-c2cc(=O)c(O)c[nH]2)nn(S(=O)(=O)NC(=O)N2C(=O)[C@@H](NC(=O)/C(=N\OC(C)(C)C(=O)O)c3csc(N)n3)[C@@H]2C)c1=O , give its reported MIC90.
result: 0.125

query: For the compound C[C@H]1[C@H](NC(=O)/C(=N\OC(C)(C)C(=O)O)c2csc(N)n2)C(=O)N1C(=O)NS(=O)(=O)n1nc(-c2cc(=O)c(O)c[nH]2)n(C)c1=O , give its reported MIC90.
result: 0.25

query: For the compound C[C@H]1[C@H](NC(=O)/C(=N\OC(C)(C)C(=O)O)c2csc(N)n2)C(=O)N1C(=O)NS(=O)(=O)n1nc(-c2cc(=O)c(O)c[nH]2)n(C[C@@H](O)CO)c1=O , give its reported MIC90.
result: 0.06

query: For the compound CC(C)(O/N=C(\C(=O)N[C@H]1CN(C(=O)NS(=O)(=O)n2nc(-c3cc(=O)c(O)c[nH]3)n(C[C@@H](O)CO)c2=O)C1=O)c1csc(N)n1)C(=O)O , give its reported MIC90.
result: 0.125

query: For the compound C[C@@H](O)[C@H]1C(=O)N2C(C(=O)O)=C(S[C@@H]3CN[C@H](C(=O)N(C)C)C3)[C@H](C)[C@H]12 , give its reported MIC90.
result: 0.5

query: For the compound C[C@H]1[C@H](NC(=O)/C(=N\OC(C)(C)C(=O)O)c2csc(N)n2)C(=O)N1C(=O)NS(=O)(=O)n1nc(-c2cc(=O)c(O)c[nH]2)n(CC(N)=O)c1=O , give its reported MIC90.
result: 0.125

query: For the compound CC1(C)[C@H](NC(=O)/C(=N\OCc2cc(=O)c(O)cn2O)c2csc(N)n2)C(=O)N1OS(=O)(=O)O , give its reported MIC90.
result: 0.5

* * *

Tested on: Pseudomonas aeruginosa
protocol: Antimicrobial activity against Pseudomonas aeruginosa 1568-05
Format: functional
result-type: MIC90
Give your result as the value with the unit written after it.

query: For the compound C[C@H]1[C@H](NC(=O)/C(=N\OC(C)(C)C(=O)O)c2csc(N)n2)C(=O)N1C(=O)NS(=O)(=O)n1nc(-c2cc(=O)c(O)c[nH]2)n(CC(N)=O)c1=O , give its reported MIC90.
result: 0.25 µg/mL

query: For the compound C[C@H]1[C@H](NC(=O)/C(=N\OC(C)(C)C(=O)O)c2csc(N)n2)C(=O)N1C(=O)NS(=O)(=O)n1nc(-c2cc(=O)c(O)c[nH]2)n(C[C@@H](O)CO)c1=O , give its reported MIC90.
result: 0.125 µg/mL

query: For the compound CC(C)(O/N=C(\C(=O)N[C@H]1CN(C(=O)NS(=O)(=O)n2nc(-c3cc(=O)c(O)c[nH]3)n(C[C@@H](O)CO)c2=O)C1=O)c1csc(N)n1)C(=O)O , give its reported MIC90.
result: 0.25 µg/mL

query: For the compound C[C@H]1[C@H](NC(=O)/C(=N\OC(C)(C)C(=O)O)c2csc(N)n2)C(=O)N1C(=O)NS(=O)(=O)n1nc(-c2cc(=O)c(O)c[nH]2)n(C)c1=O , give its reported MIC90.
result: 0.5 µg/mL

query: For the compound C[C@H](O)Cn1c(-c2cc(=O)c(O)c[nH]2)nn(S(=O)(=O)NC(=O)N2C(=O)[C@@H](NC(=O)/C(=N\OC(C)(C)C(=O)O)c3csc(N)n3)[C@@H]2C)c1=O , give its reported MIC90.
result: 0.25 µg/mL

query: For the compound CC1(C)[C@H](NC(=O)/C(=N\OCc2cc(=O)c(O)cn2O)c2csc(N)n2)C(=O)N1OS(=O)(=O)O , give its reported MIC90.
result: 0.5 µg/mL

query: For the compound C[C@@H](O)[C@H]1C(=O)N2C(C(=O)O)=C(S[C@@H]3CN[C@H](C(=O)N(C)C)C3)[C@H](C)[C@H]12 , give its reported MIC90.
result: 0.5 µg/mL

* * *

For each record, write down the corresponding MIC90.
Test system: Pseudomonas aeruginosa
protocol: Antimicrobial activity against Pseudomonas aeruginosa 1514-08
Type: functional
Lab book: enter the figure in µg/mL, no units written.

query: For the compound C[C@H]1[C@H](NC(=O)/C(=N\OC(C)(C)C(=O)O)c2csc(N)n2)C(=O)N1C(=O)NS(=O)(=O)n1nc(-c2cc(=O)c(O)c[nH]2)n(C)c1=O , give its reported MIC90.
result: 1

query: For the compound CC(C)(O/N=C(\C(=O)N[C@H]1CN(C(=O)NS(=O)(=O)n2nc(-c3cc(=O)c(O)c[nH]3)n(C[C@@H](O)CO)c2=O)C1=O)c1csc(N)n1)C(=O)O , give its reported MIC90.
result: 0.5

query: For the compound C[C@H]1[C@H](NC(=O)/C(=N\OC(C)(C)C(=O)O)c2csc(N)n2)C(=O)N1C(=O)NS(=O)(=O)n1nc(-c2cc(=O)c(O)c[nH]2)n(C[C@@H](O)CO)c1=O , give its reported MIC90.
result: 0.25

query: For the compound CC1(C)[C@H](NC(=O)/C(=N\OCc2cc(=O)c(O)cn2O)c2csc(N)n2)C(=O)N1OS(=O)(=O)O , give its reported MIC90.
result: 2

query: For the compound C[C@H]1[C@H](NC(=O)/C(=N\OC(C)(C)C(=O)O)c2csc(N)n2)C(=O)N1C(=O)NS(=O)(=O)n1nc(-c2cc(=O)c(O)c[nH]2)n(CC(N)=O)c1=O , give its reported MIC90.
result: 0.5

query: For the compound C[C@H](O)Cn1c(-c2cc(=O)c(O)c[nH]2)nn(S(=O)(=O)NC(=O)N2C(=O)[C@@H](NC(=O)/C(=N\OC(C)(C)C(=O)O)c3csc(N)n3)[C@@H]2C)c1=O , give its reported MIC90.
result: 0.5

* * *

Tested on: Pseudomonas aeruginosa
protocol: Antimicrobial activity against Pseudomonas aeruginosa 1956-00
Format: functional
result-type: MIC90

query: Answer with MIC90 of CC(C)(O/N=C(\C(=O)N[C@H]1CN(C(=O)NS(=O)(=O)n2nc(-c3cc(=O)c(O)c[nH]3)n(C[C@@H](O)CO)c2=O)C1=O)c1csc(N)n1)C(=O)O measured for Pseudomonas aeruginosa.
result: 0.06 mg/L

query: Answer with MIC90 of C[C@H]1[C@H](NC(=O)/C(=N\OC(C)(C)C(=O)O)c2csc(N)n2)C(=O)N1C(=O)NS(=O)(=O)n1nc(-c2cc(=O)c(O)c[nH]2)n(C[C@@H](O)CO)c1=O measured for Pseudomonas aeruginosa.
result: 0.03 mg/L

query: Answer with MIC90 of C[C@@H](O)[C@H]1C(=O)N2C(C(=O)O)=C(S[C@@H]3CN[C@H](C(=O)N(C)C)C3)[C@H](C)[C@H]12 [MEROPENEM] measured for Pseudomonas aeruginosa.
result: 0.5 mg/L

query: Answer with MIC90 of C[C@H]1[C@H](NC(=O)/C(=N\OC(C)(C)C(=O)O)c2csc(N)n2)C(=O)N1C(=O)NS(=O)(=O)n1nc(-c2cc(=O)c(O)c[nH]2)n(C)c1=O measured for Pseudomonas aeruginosa.
result: 0.125 mg/L

query: Answer with MIC90 of CC1(C)[C@H](NC(=O)/C(=N\OCc2cc(=O)c(O)cn2O)c2csc(N)n2)C(=O)N1OS(=O)(=O)O measured for Pseudomonas aeruginosa.
result: 0.5 mg/L

query: Answer with MIC90 of C[C@H](O)Cn1c(-c2cc(=O)c(O)c[nH]2)nn(S(=O)(=O)NC(=O)N2C(=O)[C@@H](NC(=O)/C(=N\OC(C)(C)C(=O)O)c3csc(N)n3)[C@@H]2C)c1=O measured for Pseudomonas aeruginosa.
result: 0.06 mg/L

query: Answer with MIC90 of C[C@H]1[C@H](NC(=O)/C(=N\OC(C)(C)C(=O)O)c2csc(N)n2)C(=O)N1C(=O)NS(=O)(=O)n1nc(-c2cc(=O)c(O)c[nH]2)n(CC(N)=O)c1=O measured for Pseudomonas aeruginosa.
result: 0.06 mg/L
